system: SK-MES-1; assay: relative viability (nuclei count vs DMSO), 5 days (fraction); higher = more cells survive; details: first compound 0.01 µM
measured.metric: relative viability
Would you mind answering with just the numeric figure?

# relative viability lookup, item CCN(CC)CCCCNc1ncc2cc(-c3cc(OC)cc(OC)c3)c(NC(=O)NC(C)(C)C)nc2n1 + CS(=O)(=O)CCNCc1ccc(-c2ccc3ncnc(Nc4ccc(OCc5cccc(F)c5)c(Cl)c4)c3c2)o1 [Lapatinib] (partner 2 µM)
0.518

And what about the molecule O=c1cc(N2CCOCC2)oc2c(-c3cccc4c3sc3ccccc34)cccc12 + CCNC(=O)c1noc(-c2cc(C(C)C)c(O)cc2O)c1-c1ccc(CN2CCOCC2)cc1 [Luminespib] (partner 0.01 µM) ?
0.712

And what about the molecule CCN(CC)CCCCNc1ncc2cc(-c3cc(OC)cc(OC)c3)c(NC(=O)NC(C)(C)C)nc2n1 + Cc1nc(Nc2ncc(C(=O)Nc3c(C)cccc3Cl)s2)cc(N2CCN(CCO)CC2)n1 [Dasatinib] (partner 0.075 µM) ?
0.36

---

test system: LOU-NH91; assay: relative viability (nuclei count vs DMSO), 5 days (fraction); higher = more cells survive; details: first compound 0.2 µM
measured.metric: relative viability
Would you mind answering with just the numeric figure?

compound: COCC1(CO)C(=O)C2CCN1CC2 (stereo not given) [PRIMA-1MET] + CS(=O)(=O)CCNCc1ccc(-c2ccc3ncnc(Nc4ccc(OCc5cccc(F)c5)c(Cl)c4)c3c2)o1 [Lapatinib] (partner 2 µM)
val: 0.806

# relative viability lookup, item COCC1(CO)C(=O)C2CCN1CC2 (stereo not given) [PRIMA-1MET] + CC(=O)Nc1cccc(-n2c(=O)n(C3CC3)c(=O)c3c(Nc4ccc(I)cc4F)n(C)c(=O)c(C)c32)c1 [Trametinib] (partner 0.02 µM)
0.842

---

List of relative viability values.
test system: NCI-H2023; assay: relative viability (nuclei count vs DMSO), 5 days (fraction); higher = more cells survive; conditions: first compound 0.01 µM
Would you mind answering with just the numeric figure?

compound: CCN(CC)CCCCNc1ncc2cc(-c3cc(OC)cc(OC)c3)c(NC(=O)NC(C)(C)C)nc2n1 + Cc1nc(NC(=O)N2CCC[C@H]2C(N)=O)sc1-c1ccnc(C(C)(C)C(F)(F)F)c1 [Alpelisib] (partner 2 µM)
val: 0.685
//
compound: CCN(CC)CCCCNc1ncc2cc(-c3cc(OC)cc(OC)c3)c(NC(=O)NC(C)(C)C)nc2n1 + CC(=O)Nc1cccc(-n2c(=O)n(C3CC3)c(=O)c3c(Nc4ccc(I)cc4F)n(C)c(=O)c(C)c32)c1 [Trametinib] (partner 0.02 µM)
val: 0.662
//
compound: O=c1cc(N2CCOCC2)oc2c(-c3cccc4c3sc3ccccc34)cccc12 + Cc1cc(Nc2cc(N3CCN(C)CC3)nc(Sc3ccc(NC(=O)C4CC4)cc3)n2)n[nH]1 [Tozasertib] (partner 0.1 µM)
val: 0.353

# relative viability lookup, item O=c1cc(N2CCOCC2)oc2c(-c3cccc4c3sc3ccccc34)cccc12 + Nc1ncn([C@H]2C[C@H](O)[C@@H](CO)O2)c(=O)n1 [Decitabine] (partner 2 µM)
0.252

And what about the compound CCN(CC)CCCCNc1ncc2cc(-c3cc(OC)cc(OC)c3)c(NC(=O)NC(C)(C)C)nc2n1 + Nc1ncn([C@H]2C[C@H](O)[C@@H](CO)O2)c(=O)n1 [Decitabine] (partner 2 µM) ?
0.221
